The measurements presented in this section are drawn from patent US7962204B2.

system: behaviorally-diagnosed psychiatric conditions (DSM categories); set-up: species or system human; conditions: in vivo
Endpoint: use in 309.21 Separation Anxiety Disorder

COC(=O)C(c1ccccc1)C1CCCCN1 (stereo not drawn) [SR METHYLPHENIDATE]	N
CC(NC(C)(C)C)C(=O)c1cccc(Cl)c1 (stereo not drawn) [BUPROPRION (REGULAR TABS)]	N
NNCCc1ccccc1 [PHENALZINE]	N
N[C@@H]1C[C@H]1c1ccccc1 [PARNATE, reference compound]	N
CC(NC(C)(C)C)C(=O)c1cccc(Cl)c1 (stereo not drawn) [BUPROPRION (LONG ACTING)]	N

Pending molecule:
Query block: Fill in the blank: the reported use in 309.21 Separation Anxiety Disorder of COCCc1ccc(OCC(O)CNC(C)C)cc1 (stereo not drawn) [METOPOLOL] is ____.
Result block: N

* * *

tested on: behaviorally-diagnosed psychiatric conditions (DSM categories); design: species or system human; settings: in vivo
Endpoint: use code of agent in 312.31 Pathological Gambling

C[C@H](N)Cc1ccccc1	N
CN[C@@H](C)Cc1ccccc1	N
COC(=O)C(c1ccccc1)C1CCCCN1 (stereo not shown) [METHYLPHENIDATE]	N
NC1=NC(=O)C(c2ccccc2)O1 (stereo not shown)	N
